Hello, the source for this data is PubChem BioAssay, in case you need it.

# Test Protocol: Restrictive medium S. cerevisiae growth inhibition, OD615, pilot screen of yeast lifespan reduction project, restrictive growth control (AID 706);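 also: modified DeaD lifespan yeast strain shifted to restrictive glucose medium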
# Test Settings: OD615, 48 h, at 10 µM, stronger effect = higher value
Consider the following molecules; for each one, report its growth inhibition.
Answers are plain numbers, in %.

// below: answered molecules
Bench note: what growth inhibition did `CCOCCCNC(=O)Cn1cc2c(n1)CCCC2` show?
1.36

Item under review: CC(C)c1ccc(C2CC(=O)N3CN(C)CSC3=C2C#N)cc1 (stereo unspecified) . Reported growth inhibition?
25

I have this molecule here, O=C1CC(N2CCN(C/C=C/c3ccccc3)CC2)C(=O)N1CCc1ccccc1 (stereo unspecified) , and I need its recorded growth inhibition.
-9.45

# growth inhibition lookup, item `COc1ccc(S(=O)(=O)N(CCc2ccccc2)CC(=O)N2CCOCC2)cc1`
-6.06

# query: growth inhibition of entry `Cc1ccc(C(=O)Nc2nc3ccccc3n2CCN2CCCC2)cc1`
-2

Parameter requested: growth inhibition. Apply to each item below.
1. COC(=O)C1=C(C)NC2=C(C(=O)CC(c3cccs3)C2)C1c1ccsc1 (stereo unspecified)
2. O=C(NCC1COc2ccccc2O1)c1ccc(NC(=O)C2CCCO2)cc1 (stereo unspecified)
3. Cc1nc2ccc3nc(NC(=O)C4COc5ccccc5O4)sc3c2s1 (stereo unspecified)
4. COc1cc(OC)cc(C(=O)Nc2cccc(C(C)=O)c2)c1
5. C#CCN1C(=O)C(O)(CC(=O)c2ccc3c(c2)OCCO3)c2ccccc21 (stereo unspecified)
6. CS(=O)(=O)NCCSCc1ccc(Cl)cc1

[2.53, 3.32, 0.74, -2.38, -18.4, -3.54]

----------
# Test Protocol: OD615 S. cerevisiae growth inhibition, permissive medium, pilot counter-assay, permissive growth control for S. cerevisiae lifespan shortening project (AID 705)
# Test Settings: OD615, 24 h, at 10 µM, stronger effect = higher value
Metric Name: growth inhibition (%)
Answers are plain numbers, in %.

# query: growth inhibition of entry `O=C1CCCc2sc3c(c2N1)CCCCC3`
-3.24

Entry under review: `Cc1onc(-c2ccccc2)c1C(=O)NC(C)C` . Reported growth inhibition?
-11.8

I'd like to know its growth inhibition. The compound in question is Cc1c(C(=O)NCC2CCCO2)oc2ccc(S(=O)(=O)N3CC(C)CC(C)C3)cc12 (stereo not given)
-2.38

Form field: reported growth inhibition of `O=C(CCCSc1nc2ccccc2s1)NCc1ccco1`
1.82

Field request: growth inhibition | item: `Cc1ccc(S(=O)(=O)N2CCN(C(=O)CN3CCCC3)C2)cc1`
-15.1

Which value of growth inhibition has been reported for O=C(Nc1ccccc1C(=O)NC(Cc1c[nH]c2ccccc12)C(=O)O)c1ccco1 (stereo not given) in the records?
-11

Name the reported growth inhibition value associated with the compound `c1coc(CNc2c3c(nc4ccccc24)CCC3)c1`
-9.23

I would be grateful if you could share the reported growth inhibition for `CCN(CC)CCNC(=O)Cn1nc(Cc2cccnc2)c2ccccc2c1=O` .
-3.85

For each entry beneath this line, provide reported growth inhibition.
1. COc1ccccc1N1C(=O)N(C(C)=O)C2C1Nc1ccccc1N2C (stereo not given)
2. O=C(Nc1nnc(-c2ccc3c(c2)CCCC3)o1)c1ccccc1Cl
3. O=C(Cn1cnc2c(cnn2-c2ccccc2)c1=O)NC1CCCC1

1. -2.22
2. -7.88
3. 3.55

Report growth inhibition for every entry below.
1. Cc1ccc(-c2nc(CS(=O)CC(=O)NC3CCC(C)CC3)c(C)o2)cc1 (stereo not given)
2. Cc1cc(C)n2nc(Nc3ccccc3)cc2n1
3. CN(C)S(=O)(=O)c1ccc(C(=O)Nc2ccccn2)cc1
4. CCn1nc(CC(=O)Nc2ccc(-n3cnnn3)c(C)c2)c2ccccc2c1=O
5. COc1cccc2c(=O)n(CC(=O)NC3CCCCC3)ccc12

1. 2.73
2. -3.93
3. -10.3
4. -14.8
5. 0.435

Respectfully, I request growth inhibition for each entry included below.
1. O=C(CS(=O)(=O)c1cn(Cc2cccc(F)c2)c2ccccc12)N1CCCCC1
2. COC(=O)c1ccc2c(c1)N(C)CCS2
3. CCCCNc1ncnc2c1cnn2-c1ccccc1
4. Cc1cccc(OCCOCCSc2ncccn2)c1
5. COCCN1C=C(C(=O)OC)C(c2cc(Br)c(OC)c(OC)c2)C(C(=O)OC)=C1

-12.9
-7.72
-4.09
-8.47
1.89

List growth inhibition for every entry below, keeping the order given.
1. CC(=O)c1ccc(-n2nncc2C)cc1
2. COC(=O)C(C)Sc1nnc(-c2ccncc2)o1 (stereo not given)
3. CSC1=NCCN1C(=O)c1cccs1
4. O=C(CCc1ccccc1)Nc1nnc(-c2ccc3c(c2)CCCC3)o1

-4.02
-6.28
-2.12
-1.89

----------
I'd be grateful if you could share measured viability for these entries.
# Test Protocol: growth suppression of beta-catenin knockout HCT116, pilot screen, human colon tumor cells (AID 823);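 also: 0% = wells killed by 20 µM Hyamine and 100% = untreated DMSO cell wells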
# Test Settings: CellTiter-Glo, 60 h, at 10 µM, stronger effect = lower value
Results filed as inconclusive are left out.
Answers are plain numbers, in %.

Go through the list and state viability for each entry.
1. CCC(=O)Nc1c2c(nn1-c1cccc(Cl)c1)CSC2
2. O=C(NCCN1C(=O)C2C3C=CC(C3)C2C1=O)Nc1cccnc1 (stereo unspecified)
3. Cc1cc(Nc2ccc(F)cc2F)n2nc(C)nc2n1
4. O=C(NCc1cccnc1)c1cnn2ccccc12
5. O=C(Cn1cnc2c(cnn2-c2ccccc2)c1=O)N1CCOCC1
6. Cc1cc(C(=O)NCC(c2ccco2)N(C)C)no1 (stereo unspecified)
7. Oc1[nH]c2ccccc2c1C=Nc1ccc2c(c1)OCO2

1. 89.7
2. 96.7
3. 104
4. 106
5. 101
6. 98.1
7. 75

Quick batch: viability for everything below.
1. O=C(NCc1cccs1)C1CCCN(S(=O)(=O)c2cccc3cccnc23)C1 (stereo unspecified)
2. COc1ccc(-c2nn(CC(=O)N(C)C)c(=O)c3ccccc23)cc1
3. Cc1cccc(N2CCN(c3nc4ccccc4n4cnnc34)CC2)c1C
4. Cn1c(C(=O)N2CCC(C(=O)N3CCN(Cc4ccc5c(c4)OCO5)CC3)CC2)cc2sccc21

94.8
99.8
49.3
70.9

----------
Kindly state viability for each of the entries shown.
# Test Protocol: reducers of endogenous Her2 protein level, primary screen, SKBR3 breast tumor cells, AlphaScreen, ATP viability (AID 461);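 also: percent of carrier control wells set as 100% viability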
# Test Settings: 18-24 h, measured here: SKBR3 viability, ATP luminescence, at 10 µM
Answers are plain numbers, in %.

Fill in the blank: the reported viability of `O=C(CSc1nnc(Cc2ccccc2)n1C1CCCCC1)N1CCOCC1` is ____.
92.5

Returns the measured viability for the input compound. Input: `O=C(NCc1ccco1)c1cnc2n(c1=O)CCS2`
101

Quick one: viability for `O=C(O)c1oc2ccccc2c1-n1cccc1` ?
102

Quick batch: viability for everything below.
1. CCCC1CC(C)(C(=O)Cn2[nH]c(=O)ccc2=O)OC1=O (centres undefined)
2. CC(C)(C)NC[C@H](O)COc1nsnc1N1CCOCC1
3. Cc1sc(NC(=O)CSc2nnc(COc3ccccc3)n2C)c(C#N)c1C
4. COc1ccc(-c2nc(C#N)c(N3CCN(c4ccccc4)CC3)o2)cc1
5. CC1CCc2cc(F)cc3c(=O)c(C(=O)O)cn1c23 (centres undefined)
6. CN(C)c1ccc(CNn2cnnc2)cc1
7. COC(=O)c1ccc(CSc2nc(-c3ccc(OC)cc3)nc3c2c(=O)n(C)c(=O)n3C)o1
8. Cc1cc(C)n2nc(C(=O)NCc3ccco3)nc2n1

[84, 112, 83, 94.5, 104, 104, 100, 101]

----------
# Test Protocol: Restrictive medium S. cerevisiae growth inhibition, OD615, pilot screen of yeast lifespan reduction project, restrictive growth control (AID 706);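 also: modified DeaD lifespan yeast strain shifted to restrictive glucose medium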
# Test Settings: OD615, 48 h, at 10 µM, stronger effect = higher value
Give measured growth inhibition for each item. Keep answers brief.
Numbers only, in %.

Below: 4 compounds and their reported growth inhibition.
growth inhibition lookup needed for O=C(NCCC1=CCCCC1)C1CCCN(S(=O)(=O)c2cccc3cccnc23)C1 (stereo unspecified) , thanks.
-12.7

Dear colleague, I am looking for the recorded growth inhibition of the following compound: `COC(=O)c1cn(NC(=O)C2CCCCC2)c(=O)c2ccccc12`
6.18

Recorded growth inhibition for CC1Cc2ccccc2N1C(=O)c1ccc2snnc2c1 (stereo unspecified) , please?
-9.59

Would you kindly share the measured growth inhibition for `COCCNC(=O)Cn1cnc2c1c(=O)n(C)c(=O)n2C` ?
-12.6

Dear reader, for each entry below, please note its growth inhibition.
1. CCCn1cc(S(=O)(=O)CC(=O)Nc2ccc(OCC)cc2)c2ccccc21
2. COc1ccc(CNc2oc(COc3ccccc3)nc2C#N)cc1
3. CCCn1c(CN2CCN(c3cccc(Cl)c3)CC2)nc2c1c(=O)n(C)c(=O)n2C
4. CN1C(=O)CS(=O)c2ccc(C(=O)NC3CC3)cc21 (stereo unspecified)
5. COc1cc(NC(=O)COc2ccc(-n3cnnn3)cc2)c(OC)cc1Cl
6. CCCSc1nnc(Cn2c(=O)sc3ccccc32)n1C

[3.91, -2.3, -8.51, -0.875, -5.83, -38]

May I ask what growth inhibition has been recorded for `Cc1ccc(Nc2nc(N3CCOCC3)nc(N3CCOCC3)n2)cc1` ?
-7.55
